Target: KcsA-Kv1.3
Assay: SPR-OBL binding kinetics of small molecules to KcsA-Kv1.3 nanodisc on streptavidin OBL
Conditions: 30° C., AC response, 40 times diluted nanodisc buffer
PROPERTY_LABEL: Kd

Task item: Would you mind telling me what Kd value was observed for O=c1ccc2c(OCCCCOc3ccccc3)c3ccoc3cc2o1 ?
Reply: 210 µM
